Test system: NCI-H460 tumor-bearing mice (lung cancer)
Assay: Biodistribution: lutetium accumulation in tumor, plasma and healthy tissues by ICP-MS
Type: in vivo
Conditions: 24 h
quantity_name: T/K (Tumor/Kidney ratio)

# test_smiles, subject_of_test, quantity_name, measurement
measured = [
    ("CCNC(=O)c1nnc(-c2cc(C(C)C)c(O)cc2O)n1-c1ccc(CC2CCN(C(=O)CCOCCOCCOCCOCCOCCOCCOCCOCCOCCOCCOCCOCCNC(=O)CN3CCN4CCN5CCN(CC3)CC(=O)[O][Lu]([O]C(=O)C4)[O]C(=O)C5)CC2)cc1", "NCI-H460 tumor-bearing mice (lung cancer)", "T/K (Tumor/Kidney ratio)", 3.96),
    ("CCNC(=O)c1nnc(-c2cc(C(C)C)c(O)cc2O)n1-c1ccc(OC2CCN(C(=O)CCNC(=O)[C@@H](CCC(=O)N3CCC(Oc4ccc(-n5c(C(=O)NCC)nnc5-c5cc(C(C)C)c(O)cc5O)cc4)CC3)NC(=O)CCOCCOCCOCCOCCOCCOCCOCCOCCOCCOCCOCCOCCNC(=O)CN3CCN4CCN5CCN(CC3)CC(=O)[O][Lu]([O]C(=O)C4)[O]C(=O)C5)CC2)cc1", "NCI-H460 tumor-bearing mice (lung cancer)", "T/K (Tumor/Kidney ratio)", 0.99),
    ("CCNC(=O)c1nnc(-c2cc(C(C)C)c(O)cc2O)n1-c1ccc(CN2CCN(C(=O)C[C@H](NC(=O)CCNC(=O)[C@H](CO)NC(=O)[C@H](CO)NC(=O)[C@H](CO)NC(=O)CC[C@H](C(=O)O)N3CCN4CCN5CCN(CC3)CC(=O)[O][Lu]([O]C(=O)C5)[O]C(=O)C4)C(=O)N[C@H](C)C(=O)N3CCN(Cc4ccc(-n5c(C(=O)NCC)nnc5-c5cc(C(C)C)c(O)cc5O)cc4)CC3)CC2)cc1", "NCI-H460 tumor-bearing mice (lung cancer)", "T/K (Tumor/Kidney ratio)", 3.28),
]

###

Tested on: NCI-H460 tumor-bearing mice (lung cancer)
Assay: Biodistribution: lutetium accumulation in tumor, plasma and healthy tissues by ICP-MS
Type: in vivo
Conditions: second table; kidney; 24 h

# compound, Kidney uptake, % ID/g 24 h
data = [
    ("CCNC(=O)c1nnc(-c2cc(C(C)C)c(O)cc2O)n1-c1ccc(CC2CCN(C(=O)C[C@H](NC(=O)CN3CCN4CCN5CCN(CC3)CC(=O)[O][Lu]([O]C(=O)C4)[O]C(=O)C5)C(=O)N[C@H](C)C(=O)N3CCC(Cc4ccc(-n5c(C(=O)NCC)nnc5-c5cc(C(C)C)c(O)cc5O)cc4)CC3)CC2)cc1 [CMP27]", "6.66 % ID/g"),
    ("CCNC(=O)c1nnc(-c2cc(C(C)C)c(O)cc2O)n1-c1ccc(C2CN(C(=O)CCOCCOCCOCCOCCOCCOCCOCCOCCOCCOCCOCCOCCNC(=O)CN3CCN4CCN5CCN(CC3)CC(=O)[O][Lu]([O]C(=O)C4)[O]C(=O)C5)C2)cc1 [CMP32]", "1.17 % ID/g"),
    ("CCNC(=O)c1nnc(-c2cc(C(C)C)c(O)cc2O)n1-c1ccc(CC2CCN(C(=O)CCOCCOCCOCCOCCNC(=O)CN3CCN4CCN5CCN(CC3)CC(=O)[O][Lu]([O]C(=O)C4)[O]C(=O)C5)CC2)cc1 [CMP31]", "0.84 % ID/g"),
    ("CCNC(=O)c1nnc(-c2cc(C(C)C)c(O)cc2O)n1-c1ccc(C2CCN(C(=O)CCOCCOCCOCCOCCNC(=O)CN3CCN4CCN5CCN(CC3)CC(=O)[O][Lu]([O]C(=O)C4)[O]C(=O)C5)CC2)cc1 [CMP30]", "0.76 % ID/g"),
    ("CCNC(=O)c1nnc(-c2cc(C(C)C)c(O)cc2O)n1-c1ccc(CC2CCN(C(=O)CCOCC(COCCC(=O)N3CCC(Cc4ccc(-n5c(C(=O)NCC)nnc5-c5cc(C(C)C)c(O)cc5O)cc4)CC3)NC(=O)CC[C@H](C(=O)O)N3CCN4CCN5CCN(CC3)CC(=O)[O][Lu]([O]C(=O)C5)[O]C(=O)C4)CC2)cc1 [CMP8]", "2.91 % ID/g"),
    ("CCNC(=O)c1nnc(-c2cc(C(C)C)c(O)cc2O)n1-c1ccc(CC2CCN(C(=O)C[C@H](NC(=O)CC[C@H](C(=O)O)N3CCN4CCN5CCN(CC3)CC(=O)[O][Lu]([O]C(=O)C5)[O]C(=O)C4)C(=O)N[C@H](C)C(=O)N3CCC(Cc4ccc(-n5c(C(=O)NCC)nnc5-c5cc(C(C)C)c(O)cc5O)cc4)CC3)CC2)cc1 [CMP28]", "8.90 % ID/g"),
    ("CCNC(=O)c1nnc(-c2cc(C(C)C)c(O)cc2O)n1-c1ccc(OC2CCN(C(=O)CCOCCOCCOCCOCCOCCOCCOCCOCCOCCOCCOCCOCCNC(=O)[C@H](CCCCNC(=O)CCCc3ccc(I)cc3)NC(=O)CN3CCN4CCN5CCN(CC3)CC(=O)[O][Lu]([O]C(=O)C4)[O]C(=O)C5)CC2)cc1 [CMP5]", "3.95 % ID/g"),
]

Sourced from patent US20260166158A1
